src = paper PMC7643339

Provide the recorded Kd for the entries that follow.
- STUDY TARGET: T1, mTLR9-ECD, GluC-cleaved (mouse, UniProt Q9EQU3 26-818)
- T1 sequence: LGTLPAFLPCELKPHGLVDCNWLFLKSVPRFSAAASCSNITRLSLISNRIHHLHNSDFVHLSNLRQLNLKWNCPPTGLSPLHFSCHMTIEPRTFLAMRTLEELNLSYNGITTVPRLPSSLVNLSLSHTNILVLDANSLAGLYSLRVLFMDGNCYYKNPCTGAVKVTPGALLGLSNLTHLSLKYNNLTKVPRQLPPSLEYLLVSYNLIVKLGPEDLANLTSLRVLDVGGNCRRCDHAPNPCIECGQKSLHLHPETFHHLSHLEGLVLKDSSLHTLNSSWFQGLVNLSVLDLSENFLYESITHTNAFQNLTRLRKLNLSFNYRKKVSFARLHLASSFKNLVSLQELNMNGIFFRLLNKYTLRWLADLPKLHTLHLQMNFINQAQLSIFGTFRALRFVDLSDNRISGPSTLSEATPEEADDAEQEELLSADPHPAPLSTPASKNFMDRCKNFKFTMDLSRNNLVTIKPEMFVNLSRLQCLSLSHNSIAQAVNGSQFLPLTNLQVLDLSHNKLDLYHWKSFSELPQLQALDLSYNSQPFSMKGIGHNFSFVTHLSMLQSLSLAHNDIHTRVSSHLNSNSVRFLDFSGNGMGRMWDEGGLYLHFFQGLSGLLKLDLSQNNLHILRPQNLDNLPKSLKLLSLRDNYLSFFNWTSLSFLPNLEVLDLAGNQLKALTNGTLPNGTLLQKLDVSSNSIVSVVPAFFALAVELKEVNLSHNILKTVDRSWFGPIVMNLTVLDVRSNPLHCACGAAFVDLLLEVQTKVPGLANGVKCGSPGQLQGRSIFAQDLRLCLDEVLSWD
- TEST DETAILS: fluorescence anisotropy; apparent, 1:1 fit; Anisotropy: 2 or 5 nM Alexa 488 oligo, protein to 100 nM; competition in 10 mM MES pH 6.0, 0.15 M NaCl, room temperature (direct titration buffer not separately)
Could you give me the number in nM? Just the number is fine.

Ask: What value of Kd has been recorded for this entry: TCCATGACGTTCCTGATGCT (ssDNA) [1668 (Alexa 488)]
Reply: 2.8

Ask: What value of Kd has been recorded for this entry: TCCTTTCGTTTTTTTTTTTTTTT (ssDNA) [minM (Alexa 488)]
Reply: 3.2
